Source: PubChem BioAssay AID720540

target: Protein phosphatase EYA2 (Homo sapiens); experiment: qHTS for Inhibitors of the Phosphatase Activity of Eya2: Confirmatory Assay for Cherry-picked Compounds; conditions: purified EYA2 phosphatase activity, qHTS confirmation; series mostly up to 46.1 µM; also: nearly all actives have a fitted effect of over 65% in size; also: potency is read from the fitted curve at half-maximal effect
Among all 1,300 compounds or so, about 460 (35%) were called active. Inconclusive results (about 39%) are left out. The list shows a part of the results.
endpoint_name: Potency

>>> endpoint_result("COc1cccc(OC)c1C(=O)OCC(=O)NCC1CCCCC1")
"inactive"
>>> endpoint_result("O=C(Cc1ccc(F)cc1)Oc1ccc(C(=S)N2CCCC2)cc1")
"15.1 µM (active)"
>>> endpoint_result("CC(=O)Nc1ccc(S(=O)(=O)Nc2ccc(N3CCCCC3)cc2)cc1")
"8.49 µM (active)"
>>> endpoint_result("CC(=O)Oc1ccc(N2C(=O)c3cccc4c([N+](=O)[O-])ccc(c34)C2=O)cc1")
"inactive"
>>> endpoint_result("O=C1/C(=C/c2ccco2)SC(=S)N1c1cccnc1")
"12 µM (active)"
>>> endpoint_result("O=S(=O)(O)c1ccc(O)c2cc(Nc3ccccc3)ccc12")
"7.57 µM (active)"
>>> endpoint_result("COc1ccc(N2CCN(C(=O)c3cc(-c4cc(OC)ccc4OC)nc4ccccc34)CC2)cc1")
"16.9 µM (active)"
>>> endpoint_result("Cc1cc(C(=O)COC(=O)c2ccc(O)cc2)c(C)n1CCc1ccc(F)cc1")
"inactive"
>>> endpoint_result("CCOc1ccc(Br)cc1S(=O)(=O)NC1CC(C)(C)NC(C)(C)C1")
"inactive"
>>> endpoint_result("COc1cc(CNCc2ccc(OC)cc2OC)cc(OC)c1")
"inactive"
>>> endpoint_result("O=C(CC1(O)C(=O)Nc2ccccc21)c1ccccc1 (configuration not stated)")
"inactive"
>>> endpoint_result("CCCC(=O)Nc1ccc(NC(=S)NC(=O)c2cccs2)cc1")
"inactive"
>>> endpoint_result("O=S(=O)(Nc1nnc(-c2ccccc2)s1)c1ccc(Cl)cc1")
"15.1 µM (active)"
>>> endpoint_result("CC(=O)c1ccc(NS(=O)(=O)c2cccc(C(=O)Nc3ccccc3C(=O)O)c2)cc1")
"15.1 µM (active)"
>>> endpoint_result("COc1ccc(CCNc2nc(-c3ccccn3)cs2)cc1OC")
"7.57 µM (active)"
>>> endpoint_result("N[C@@H](Cc1cnc[nH]1)C(=O)Nc1ccc2ccccc2c1")
"21.3 µM (active)"
>>> endpoint_result("O=C(O)c1cc(N2N=C(C(F)(F)F)/C(=C/C=C/c3ccco3)C2=O)ccc1Cl")
"1.51 µM (active)"
>>> endpoint_result("O=C1C(NS(=O)(=O)c2cccs2)=C(N2CCN(Cc3ccccc3)CC2)C(=O)c2ccccc21")
"13.5 µM (active)"
>>> endpoint_result("COC(=O)c1ccc(C23CC4(C2)[C@H](CN(CC2CCCCC2)[C@@H]4c2ccccc2)C3c2ccc(Cl)nc2)cc1 (some centres not stated)")
"inactive"
>>> endpoint_result("O=C(Cc1ccccc1F)Nc1cccc(S(=O)(=O)N2CCCCC2)c1")
"inactive"
>>> endpoint_result("Cc1[nH]n(-c2cccc3ccccc23)c(=O)c1C=Nc1ccc2[nH]c(=O)[nH]c2c1")
"7.57 µM (active)"
>>> endpoint_result("Nc1nc2cc3ccccc3cc2[nH]c1=O")
"inactive"
>>> endpoint_result("O=c1c2ccccc2nnn1CSc1nnc(C2COc3ccccc3O2)n1-c1ccccc1 (configuration not stated)")
"inactive"
>>> endpoint_result("Cc1nc2c(C(=O)Nc3ccc(N4CCCC(O)C4)cc3)snc2c(=O)[nH]1 (configuration not stated)")
"inactive"
>>> endpoint_result("O=c1cc2oc3cc(O)c(O)cc3c(-c3ccccc3[N+](=O)[O-])c-2cc1O")
"16.9 µM (active)"
>>> endpoint_result("Cc1cccc(NC(=S)N(CCN2CCOCC2)Cc2cc3cc4c(cc3[nH]c2=O)OCCO4)c1")
"inactive"
>>> endpoint_result("O=C(CC(=O)c1c(F)cccc1Cl)c1ccccc1O")
"inactive"
>>> endpoint_result("Cc1c(NC(=O)/C(C#N)=C/c2ccc(-c3cc(Cl)ccc3Cl)o2)c(=O)n(-c2ccccc2)n1C")
"7.57 µM (active)"
>>> endpoint_result("CCOCCCNC(=O)c1cc2sc(Cl)cc2n1CC")
"inactive"
>>> endpoint_result("Oc1c(C(Nc2nc3ccccc3s2)c2ccco2)ccc2cccnc12 (configuration not stated)")
"9.53 µM (active)"
>>> endpoint_result("CC(=O)Nc1ccc(S(=O)(=O)N2C3CCCC2CC(NC(=O)C2CCCCC2)C3)cc1 (configuration not stated)")
"inactive"
>>> endpoint_result("CC1CCc2c(sc(NC(=O)/C=C/c3cccs3)c2C(=O)O)C1 (configuration not stated)")
"19 µM (active)"
>>> endpoint_result("O=c1c2ccccc2c(C=Nc2cccc(S(=O)(=O)NC3=NCCCCC3)c2)c(O)n1Cc1ccccc1")
"inactive"
>>> endpoint_result("CCN(CC)c1ccc(NC(=S)NC(=O)c2cccs2)cc1")
"13.5 µM (active)"
>>> endpoint_result("COc1cc(/C=C2\\C(C)=C(C#N)c3nc(N)c(C#N)c(C)c32)ccc1OCC(=O)O")
"16.9 µM (active)"
>>> endpoint_result("Cc1ccc(Nc2nc(N)nc(CSc3nnc(C)s3)n2)cc1")
"inactive"
>>> endpoint_result("Cc1ccc(/C=C/C(=O)Nc2ccc(N(C)C)cc2)o1")
"19 µM (active)"
>>> endpoint_result("O=C(Nc1ccc2nc(-c3ccco3)c(-c3ccco3)nc2c1)N1CCCC1")
"7.57 µM (active)"
>>> endpoint_result("CCOC(=O)CN1C(=O)/C(=C2\\SC(=S)N(NC(=O)c3cccnc3)C2=O)c2ccccc21")
"19 µM (active)"
>>> endpoint_result("Cc1cc(=O)n2nc(N3CCCC(C(=O)Nc4ccc(C)c(C)c4)C3)sc2n1 (configuration not stated)")
"inactive"
>>> endpoint_result("CN1C(=O)/C(=C2\\SC(=S)N(NC(=O)c3cccnc3)C2=O)c2ccccc21")
"9.53 µM (active)"
>>> endpoint_result("CN(C)S(=O)(=O)c1cccc(NC(=O)COc2ccccc2C(=O)Nc2ccccc2)c1")
"13.5 µM (active)"
